pIC50: −log10 of the molar value.
For reference, the following pIC50 results for VPS34 (Homo sapiens) were taken from various sources.

Below, each entry is followed by its recorded pIC50 result.
CC(=O)Nc1cc(-n2cc(C(N)=O)c(-c3cc(CN(C)C)ccc3Cl)c2)c(C)cn1 5.30 to 6.00
COC(=O)Nc1cc(-n2cc(-c3ncc[nH]3)c(-c3ccccc3Cl)c2)c(C)cn1 > 7.30
CC(=O)Nc1cc(-c2cc(-c3ccccc3C)c(-c3nc[nH]n3)n2C)ccn1 5.00 to 6.00

Ask: For the molecule COC(=O)Nc1cc(-n2cc(C(N)=O)c(-c3ccccc3Cl)c2)c(C)cn1 , what pIC50 is on record?
Reply: > 7.30

Ask: Name the reported pIC50 value associated with the molecule Cc1nccc(Nc2cc(-c3cnc(C)c(NS(=O)(=O)c4ccc(F)cc4F)c3)ccn2)n1
Reply: > 8.00

Ask: Data request, read-out pIC50, for COCCN1c2nc(N3CCOCC3)cc(=O)n2CC12CCCC2
Reply: < 7.00
